Every entry's value here was drawn from PubChem BioAssay.

# MEASUREMENT_PROTOCOL: MM1S cell viability effects, profiling panel, calcein-AM fluorescence, 48 h, basal (AID 1165);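 also: viability of MM1S multiple myeloma cells under basal unstimulated conditions; test concentration not given here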
# RUN_PARAMETERS: higher = more signal
Could you please classify the records by z-score using these ranges: bin A (below -2), bin B (-2 to below -0.5), bin C (-0.5 or more)

| COMPOUND | ASSIGNED_LABEL |
| --- | --- |
| COc1ccc([Si](C)(C)[C@H]2[C@H](CC(=O)N3CCC[C@H]3CO)O[C@@]3(C(=O)N(Cc4ccc(N5CCC5=O)cc4)c4ccccc43)[C@@H]2C)cc1 | bin A |
| O=C1C2C=CC(C(O)c3ccc4c(c3)OCO4)N(Nc3ccccc3)C2C(=O)N1c1ccccc1 (stereo not drawn) | bin C |
| COCCOC(=O)N1C(=O)[C@@]2(c3cc(C#CCC(C(=O)OC)C(=O)OC)ccc31)[C@H](c1ccc(OCCO)cc1)N1[C@H](c3ccccc3)[C@H](c3ccccc3)OC(=O)[C@H]1[C@@H]2C(=O)Nc1nc2ccccc2s1 | bin B |
| C=C(COC)C(=O)CC[C@H](OC(C)=O)c1ccc(OCCO)cc1 | bin A |
| CC(C)[C@H]1NC(=O)[C@@]23C(=O)N[C@@H](Cc4ccccc4)C2[C@H](C)[C@@]2(C)O[C@H]2C3/C=C/C/C=C\CNC(=O)[C@H](Cc2ccccc2)NC1=O (stereo partly drawn) | bin B |
| COCCOC(=O)N1C(=O)[C@@]2(c3cc(C#Cc4ccc(OC)cc4)ccc31)[C@H](C(=O)NC[C@H](O)c1ccccc1)[C@H]1C(=O)O[C@H](c3ccccc3)[C@H](c3ccccc3)N1[C@@H]2c1ccc(OCCO)cc1 | bin B |
| Cc1ccc(S[C@]2(C(=O)NCc3ccccc3)CC(=O)N(Cc3cc(C(F)(F)F)cc(C(F)(F)F)c3)[C@@H]2c2ccc(CO)cc2I)cc1 | bin B |
| CC(C)C[C@@H]1NC(=O)[C@@H]2C[C@H](C(=O)NCCCCCC[N+](C)(C)C)[C@H](c3cccc(OCCO)c3)N2C1=O | bin C |
| CN(C)C(=O)[C@@]1(Cc2ccccc2)COC(c2ccc(OCCCO)cc2)=N1 | bin B |
| C=CCNC(=O)[C@H]1[C@@H]2C(=O)O[C@@H](c3ccccc3)[C@@H](c3ccccc3)N2[C@@H](c2ccc(OCCO)cc2)[C@]12C(=O)N(C(=O)OCCOC)c1ccc(C#Cc3ccc(OC)cc3)cc12 | bin C |
| COc1ccc([Si](C)(C)[C@@H]2[C@@H](CC(=O)N3Cc4ccccc4C[C@H]3CO)O[C@]3(C(=O)N(c4ccccc4)c4ccccc43)[C@H]2C)cc1 | bin A |
| CCCNC(=O)[C@@]1(Sc2ccc(C)cc2)CC(=O)N(C(C)C)[C@@H]1c1ccc(CO)cc1I | bin A |

###

# MEASUREMENT_PROTOCOL: mitochondrial membrane potential change in A549 cells, profiling panel, cell-based, JC-1 fluorescence, basal, 24 h, 100 nL (AID 1138);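 also: A549 lung adenocarcinoma cells under basal conditions with no added stimulus; test concentration not given here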
# RUN_PARAMETERS: higher = more signal
Listing: z-score of selected compounds

| COMPOUND | z-score |
| --- | --- |
| O=C1[C@@H]2[C@@H](CC(COc3ccccc3)=C3[C@@H](CCc4ccccc4)OB(O)C[C@@H]32)C(=O)N1Cc1ccccc1 | 1.83 |
| CC(C)OC(=O)CC(=O)CC(O)c1ccc([N+](=O)[O-])cc1 (stereo not drawn) | 0.276 |
| COC(=O)C(CC#Cc1ccc2c(c1)[C@]1(C(=O)N2)[C@H](c2ccc(OCCO)cc2)N2[C@H](c3ccccc3)[C@H](c3ccccc3)OC(=O)[C@H]2[C@@H]1C(=O)N1CCN(c2ncccn2)CC1)C(=O)OC | -1.56 |
| C=C[C@@H](C)[C@H](O)c1ccc(OCCO)cc1 | 0.41 |
| C=CCN1C(=O)[C@]2(O[C@H](CCO)[C@@H]([Si](C)(C)c3ccc(OC)cc3)[C@@H]2C)c2cc(N3C(=O)COc4ccccc43)ccc21 | -1.46 |
| CC(=O)N1CC(C(O)C2C=CC3C(=O)NC(=O)C3N2Nc2ccc(Cl)cc2Cl)c2ccccc21 (stereo not drawn) | 0.125 |
| Cc1ccc(S[C@]2(C(=O)NC(C)C)CC(=O)N(Cc3ccccc3Cl)[C@@H]2c2ccc(CO)cc2)cc1 | -0.718 |
| CC(C)C[C@@H]1NC(=O)[C@@]23C(=O)N[C@@H](Cc4ccccc4)C2[C@H](C)[C@@]2(C)O[C@H]2C3/C=C/C/C=C\CNC(=O)[C@@H](C)NC1=O (stereo partly drawn) | 0.0204 |
